Hi there, I'd appreciate the recorded Plant response rating, Sedge, Umbrella (Flood) for every entry that follows.
# Test system: sedge umbrella (small-flower umbrella sedge, Cyperus difformis)
# test-method-notes: Test D flooded paddy test, visual plant response rating
# Assay type: in vivo
# test-parameters: 250 g ai/ha, scale 0 to 100 (0 no effect, 100 complete control), 13 to 15 d
One number for each entry.

CC(C)O/N=C(\c1c(O)c(Cl)nn(C)c1=O)c1ccc(F)c2ccccc12: 90
CO/N=C(\c1c(O)c(C)nn(C)c1=O)c1cc(SC)cc2ccccc12: 0
CON=C(c1cc(Cl)cc(Cl)c1Cl)c1c(O)c(C)nn(C)c1=O: 90

# get_value(readout='Plant response rating, Sedge, Umbrella (Flood)', item= Cc1nn(C)c(=O)c(/C(=N/OC(C)C)c2cccc3cc(Cl)ccc23)c1O ) 50

---

# System: rice (Oryza sativa)
# test-method-notes: Test D flooded paddy test, visual plant response rating
# Type: in vivo
# test-parameters: 250 g ai/ha, scale 0 to 100 (0 no effect, 100 complete control), 13 to 15 d
parameter: Plant response rating, Rice (Flood)
Numbers only.

Would you be so kind as to report Plant response rating, Rice (Flood) for each listed record?
1. C#CCO/N=C(\c1ccc(F)c(Cl)c1)c1c(O)c(C)nn(C)c1=O [Compound 230]
2. CO/N=C(\c1cc(Cl)c(F)c(Cl)c1)c1c(O)c(C)nn(C)c1=O [Compound 290]
3. C#CCO/N=C(\c1c(O)c(Cl)nn(C)c1=O)c1ccc(F)c2ccccc12 [Compound 220]
4. Cc1nn(C)c(=O)c(/C(=N\OC(C)C)c2cccc3cc(Cl)ccc23)c1O [Compound 241]

1. 0
2. 0
3. 0
4. 85

---

Hi there, I'd appreciate the recorded Plant response rating, Barnyardgrass (Flood) for every entry that follows.
# Tested on: barnyardgrass (Echinochloa crus-galli)
# test-method-notes: Test D flooded paddy test, visual plant response rating
# Format: in vivo
# test-parameters: 250 g ai/ha, scale 0 to 100 (0 no effect, 100 complete control), 13 to 15 d

A selection of reference data follows.
CO/N=C(\c1cccc(/C=C\Cl)c1)c1c(O)c(C)nn(C)c1=O: 0
CCOc1cccc(C(=NOC)c2c(O)c(C)nn(C)c2=O)c1: 0

Would you be so kind as to report Plant response rating, Barnyardgrass (Flood) for each listed record?
1. CO/N=C(/c1cc(C)cc(Cl)c1)c1c(O)c(C)nn(C)c1=O
2. CO/N=C(\c1c(O)c(C)nn(C)c1=O)c1cccc2cc(Cl)ccc12
3. Cc1nn(C)c(=O)c(/C(=N/OC(C)C)c2cc(Cl)cc(Cl)c2F)c1O

[0, 15, 95]

---

# Tested on: kochia (Bassia scoparia)
# test-method-notes: Test C postemergence, visual plant response rating
# Assay type: in vivo
# test-parameters: Postemergence, 31 g ai/ha
# Source text: […]
Hi there, I'd appreciate the recorded Kochia plant response rating (0 to 100 scale) for every entry that follows.
Give bare numbers.

A selection of reference data follows.
C#CCO/N=C(\c1ccc(Cl)c(Cl)c1)c1c(O)c(C)nn(C)c1=O: 30
CC(C)O/N=C(\c1c(O)c(Cl)nn(C)c1=O)c1ccc(F)c2ccccc12: 30
CO/N=C(/c1cccc(Br)c1)c1c(O)c(C)nn(C)c1=O: 30
C#CCO/N=C(\c1cccc(/C=C\Cl)c1)c1c(O)c(C)nn(C)c1=O: 40
Cc1nn(C)c(=O)c(/C(=N/OC(C)C)c2cc(Cl)cc(Cl)c2Cl)c1O: 10
C=CCON=C(c1cc(Cl)cc(Cl)c1Cl)c1c(O)c(C)nn(C)c1=O: 20
Cc1nn(C)c(=O)c(/C(=N/OCCO)c2cccc3cc(Cl)ccc23)c1O: 0
C#CCO/N=C(\c1cc(Cl)cc(Br)c1)c1c(O)c(C)nn(C)c1=O: 60

Next:
# get_value(readout='Kochia plant response rating (0 to 100 scale)', item= CCO/N=C(\c1cc(Cl)cc(Cl)c1Cl)c1c(O)c(C)nn(C)c1=O ) 50
